- Tested on: B6C3F1 mice, Lewis lung carcinoma iv, survival T/C
- protocol: NCI In Vivo Anticancer Drug Screen. Data for tumor model Lewis Lung Carcinoma (intravenous) in B6C3F1 mice
- measurementConditions: endpoint: median survival time; dose: 2.5 mg/kg/injection; schedule: Q01DX009 (ip); vehicle: saline; higher = longer survival
Toxic doses and inconclusive results are not listed.

compound	experimentalSystem	T/C
C[PH+](C)C.C[PH+](C)C.[Au]	B6C3F1 mice, Lewis lung carcinoma iv, survival T/C	105 % of control
Cc1nc(N)nc(N)c1-c1ccc(Cl)c(Cl)c1	B6C3F1 mice, Lewis lung carcinoma iv, survival T/C	113 % of control
O=NN(CCF)C(=O)NC1CCC(=O)NC1=O (stereo not drawn)	B6C3F1 mice, Lewis lung carcinoma iv, survival T/C	118 % of control
O=NN(CCF)C(=O)N[C@H]1CCCC[C@H]1O	B6C3F1 mice, Lewis lung carcinoma iv, survival T/C	105 % of control
O=C1c2ccccc2C(=O)c2c(NCCNCCO)ccc(O)c21	B6C3F1 mice, Lewis lung carcinoma iv, survival T/C	104 % of control
C=C(C)[C@H]1CN[C@H](C(=O)O)[C@H]1CC(=O)O	B6C3F1 mice, Lewis lung carcinoma iv, survival T/C	100 % of control
NC(=O)c1[nH]nc(C2OC(CO)C(O)C2O)c1O (stereo not drawn)	B6C3F1 mice, Lewis lung carcinoma iv, survival T/C	122 % of control
O=NN(CCF)C(=O)NC1C(O)CCCC1O (stereo not drawn)	B6C3F1 mice, Lewis lung carcinoma iv, survival T/C	116 % of control
